# TGT: MBP-FoxP1dN (Mus musculus, UniProt P58462 326-579)
# Sequence: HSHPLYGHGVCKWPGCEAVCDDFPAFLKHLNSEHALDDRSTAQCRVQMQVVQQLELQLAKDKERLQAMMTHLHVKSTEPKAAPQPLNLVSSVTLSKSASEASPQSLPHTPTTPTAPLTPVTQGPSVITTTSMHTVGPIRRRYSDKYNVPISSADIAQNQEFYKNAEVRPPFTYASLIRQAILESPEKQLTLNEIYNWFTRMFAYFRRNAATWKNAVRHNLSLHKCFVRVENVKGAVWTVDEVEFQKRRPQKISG
# PROTOCOL_DETAILS: PD-seq (MBP pull-down with sequencing); 20 mM Tris-HCl pH 7.5, 100 mM NaCl, 1.5 mM MgCl2, 0.4 uM protein, 0.1 uM dsDNA library, 30 min, room temperature, amylose pull-down; high values mean tight binding
# CONDITION_NOTES: protein: recombinant; tags: His6-MBP; chain copies: 2; dsDNA, one strand shown
Whole data set: some 16,000 sequences, median “rpm ratio (pull-down/input)” near 0.94, cut for the highest 2% near 1.7. The list comes from a sample in which the highest values are over-represented; it also holds close analogues and randomly drawn sequences.
Entries and their measured binding signal follow.

GATGATTGTTCTCCCAGCTGATGAATTAGTGAGATCGAGTAAACAAATTTTCCTAATCTTTCTGTTCAAGCGCCATCTAC :: 0.857 RPM ratio (pull-down/input)
GATGATTGTTCTCCCAGCTGATGAATTGATGACCTCGAGTAAACAAATTTTCCTAATCTTTCTGTTCAAGCGCCATCTAC :: 1.02 RPM ratio (pull-down/input)
GATGATTGTTCTCCCAGCTGATGAATTCTCTCGCTCGAGTAAACAAATTTTCCTAATCTTTCTGTTCAAGCGCCATCTAC :: 0.825 RPM ratio (pull-down/input)

QUERY: Answer with reported binding signal of `GATGATTGTTCTCCCAGCTGATGAATTTCTGTCCTCGAGTAAACAAATTTTCCTAATCTTTCTGTTCAAGCGCCATCTAC`
RESULT: 0.915 RPM ratio (pull-down/input)

* * *

# TGT: MBP-FoxP1dN (Mus musculus, UniProt P58462 326-579)
# Sequence: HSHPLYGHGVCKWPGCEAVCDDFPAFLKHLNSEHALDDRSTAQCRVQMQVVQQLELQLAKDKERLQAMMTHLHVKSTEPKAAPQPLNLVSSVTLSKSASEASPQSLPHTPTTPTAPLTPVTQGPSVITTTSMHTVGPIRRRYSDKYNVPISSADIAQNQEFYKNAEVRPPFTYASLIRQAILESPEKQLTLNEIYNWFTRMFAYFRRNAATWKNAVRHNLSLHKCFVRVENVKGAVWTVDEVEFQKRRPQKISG
# PROTOCOL_DETAILS: PD-seq (MBP pull-down with sequencing); 20 mM Tris-HCl pH 7.5, 100 mM NaCl, 1.5 mM MgCl2, 0.4 uM protein, 0.1 uM dsDNA library, 30 min, room temperature, amylose pull-down; high values mean tight binding
# CONDITION_NOTES: protein: recombinant; tags: His6-MBP; chain copies: 2; dsDNA, one strand shown
Whole data set: some 16,000 sequences, median “rpm ratio (pull-down/input)” near 0.94, cut for the highest 2% near 1.7. This excerpt belongs to a sample that is enriched for the highest values.
Entries and their measured binding signal follow.

QUERY: Answer with reported binding signal of `GATGATTGTTCTCCCAGCTGATGAATTGACCATGTCGAGTAAACAAATTTTCCTAATCTTTCTGTTCAAGCGCCATCTAC`
RESULT: 0.875 RPM ratio (pull-down/input)

QUERY: Answer with reported binding signal of `GATGATTGTTCTCCCAGCTGATGAATTATCTGATTCGAGTAAACAAATTTTCCTAATCTTTCTGTTCAAGCGCCATCTAC`
RESULT: 0.984 RPM ratio (pull-down/input)

QUERY: Answer with reported binding signal of `GATGATTGTTCTCCCAGCTGATGAATTATTAACATCGAGTAAACAAATTTTCCTAATCTTTCTGTTCAAGCGCCATCTAC`
RESULT: 1.32 RPM ratio (pull-down/input)

QUERY: Answer with reported binding signal of `GATGATTGTTCTCCCAGCTGATGAATTAAGGGTTTCGAGTAAACAAATTTTCCTAATCTTTCTGTTCAAGCGCCATCTAC`
RESULT: 0.875 RPM ratio (pull-down/input)

QUERY: Answer with reported binding signal of `GATGATTGTTCTCCCAGCTGATGAATTAACATAATCGAGTAAACAAATTTTCCTAATCTTTCTGTTCAAGCGCCATCTAC`
RESULT: 1.45 RPM ratio (pull-down/input)

QUERY: Answer with reported binding signal of `GATGATTGTTCTCCCAGCTGATGAATTTGCGTTGTCGAGTAAACAAATTTTCCTAATCTTTCTGTTCAAGCGCCATCTAC`
RESULT: 1.29 RPM ratio (pull-down/input)

QUERY: Answer with reported binding signal of `GATGATTGTTCTCCCAGCTGATGAATTGTTCGAGTCGAGTAAACAAATTTTCCTAATCTTTCTGTTCAAGCGCCATCTAC`
RESULT: 1.05 RPM ratio (pull-down/input)
